System: UniProt P23977 | Read-out: pKi | Origin: multiple publications
Sequence (P23977 whole entry): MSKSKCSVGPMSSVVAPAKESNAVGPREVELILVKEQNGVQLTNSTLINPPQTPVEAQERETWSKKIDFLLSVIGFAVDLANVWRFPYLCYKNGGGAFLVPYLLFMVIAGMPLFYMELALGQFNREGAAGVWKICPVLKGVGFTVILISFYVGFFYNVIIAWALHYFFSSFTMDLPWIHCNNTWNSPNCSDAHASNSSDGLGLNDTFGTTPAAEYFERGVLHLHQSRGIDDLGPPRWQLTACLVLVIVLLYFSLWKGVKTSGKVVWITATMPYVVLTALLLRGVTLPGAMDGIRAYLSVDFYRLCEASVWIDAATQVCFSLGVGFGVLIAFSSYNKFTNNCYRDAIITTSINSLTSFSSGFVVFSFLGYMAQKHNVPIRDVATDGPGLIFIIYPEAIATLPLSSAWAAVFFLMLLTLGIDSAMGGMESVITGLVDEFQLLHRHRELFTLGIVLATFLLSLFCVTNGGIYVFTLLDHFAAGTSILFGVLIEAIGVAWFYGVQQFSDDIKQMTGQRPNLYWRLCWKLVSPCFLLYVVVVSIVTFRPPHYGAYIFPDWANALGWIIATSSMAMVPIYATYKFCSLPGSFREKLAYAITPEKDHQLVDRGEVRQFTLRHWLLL
One number for each entry, as −log10 of the molar value.

Known pKi results, listed for orientation:
- molecule: "Cc1ccccc1OC(c1ccc(I)s1)C1CNCCO1 (racemic)"
  pKi: 6.73
- molecule: "COc1cc2c(cc1OC)C1=NO[C@@H](CN3CCN(C/C(C)=C/c4ccc(F)cc4)CC3)[C@@H]1CO2 (stereo in doubt; form 1)"
  pKi: 6.23
- molecule: "Clc1ccc(N2CCN(CCCc3ccccc3)CC2)cc1"
  pKi: 5.58

Would you be so kind as to report pKi for each listed record?
1. Oc1ccc(CN[C@@H]2CO[C@H](C(c3ccc(F)cc3)c3ccc(F)cc3)C[C@H]2O)cc1
2. c1ccc(CNc2nc(-c3ccccc3)nc3ccccc23)cc1
3. C[C@@H]1CN(CCCN(c2ccc(F)cc2)c2ccc(F)cc2)C[C@@H](C)N1
4. C[C@@H]1CN(CCCN(c2ccc(F)cc2)c2ccc(F)cc2)C[C@@H](C)N1CCCc1ccccc1
5. C[C@@H]1CN(CCCN(c2ccc(F)cc2)c2ccc(F)cc2)C[C@@H](C)N1CCc1ccc(Cl)c(Cl)c1
6. CCCCC1CCN(CCCN2C(=O)CCc3ccccc32)CC1
7. COc1cc2c(cc1OC)C1=NO[C@@H](CN3CCN(C/C=C/c4ccccc4)CC3)[C@@H]1CO2
8. Oc1ccc(CN[C@H]2CC[C@@H](CCC(c3ccccc3)c3ccccc3)OC2)cc1

[out]
1. 7.42
2. 5.10
3. 7.11
4. 7.64
5. 6.74
6. 5.47
7. 6.29
8. 7.34

[in] Param item = Fc1ccc(OC(c2ccccc2)C2CCNCC2)cc1 (stereo in doubt; (+)-15p) ; retrieve measured pKi.
[out] 6.09
